Biological target: PADI4, Q9UM07
Sequence (Q9UM07 whole entry): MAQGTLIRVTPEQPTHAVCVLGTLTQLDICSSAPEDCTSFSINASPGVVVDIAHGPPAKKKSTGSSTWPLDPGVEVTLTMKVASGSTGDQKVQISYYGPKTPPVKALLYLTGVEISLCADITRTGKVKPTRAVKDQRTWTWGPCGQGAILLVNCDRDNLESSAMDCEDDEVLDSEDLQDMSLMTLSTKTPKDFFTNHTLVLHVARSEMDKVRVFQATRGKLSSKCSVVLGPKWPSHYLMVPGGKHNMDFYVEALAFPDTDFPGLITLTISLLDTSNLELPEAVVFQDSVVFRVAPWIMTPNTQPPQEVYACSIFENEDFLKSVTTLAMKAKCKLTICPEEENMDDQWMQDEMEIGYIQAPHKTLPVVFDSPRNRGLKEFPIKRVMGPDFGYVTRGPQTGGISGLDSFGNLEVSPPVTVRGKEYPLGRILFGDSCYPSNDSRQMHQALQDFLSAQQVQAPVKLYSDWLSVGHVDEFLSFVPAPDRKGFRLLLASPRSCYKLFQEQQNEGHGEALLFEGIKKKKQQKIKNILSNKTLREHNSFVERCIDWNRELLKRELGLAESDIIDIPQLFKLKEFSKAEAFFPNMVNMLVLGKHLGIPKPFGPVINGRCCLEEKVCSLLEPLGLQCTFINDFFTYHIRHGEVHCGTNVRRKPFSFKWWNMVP
Assay: log2 enrichment score relative to parent PADI4_3 peptide (binding to PADI4); higher = tighter binding than parent
Conditions: CaCl2: 10 mM
For each of the binders below, state its log2 enrichment score.
One number for each entry.

Prompt line: # input binder: YRDHHCRHPKYCG [PADI4_3_Y6C Y6C] ; wanted: its log2 enrichment score
Response line: -3.47

Prompt line: # input binder: YRDHHYRHPKYCG [PADI4_3_Y6Y Y6Y] ; wanted: its log2 enrichment score
Response line: 0

Prompt line: # input binder: YRDEHYRHPKYCG [PADI4_3_H4E H4E] ; wanted: its log2 enrichment score
Response line: -3.05

Prompt line: # input binder: YRDHHYRHPKICG [PADI4_3_Y11I Y11I] ; wanted: its log2 enrichment score
Response line: -3.77

Prompt line: # input binder: YHDHHYRHPKYCG [PADI4_3_R2H R2H] ; wanted: its log2 enrichment score
Response line: -2.21

Prompt line: # input binder: YRDHHNRHPKYCG [PADI4_3_Y6N Y6N] ; wanted: its log2 enrichment score
Response line: -2.28

Further cases:
Prompt line: # input binder: YRDHLYRHPKYCG [PADI4_3_H5L H5L] ; wanted: its log2 enrichment score
Response line: -3.61

Reference source: the supplement of paper PMC11555231
